Field: melting point. Provide a value for each of the compounds that follow.

Each compound below has a reported value. Please supply its melting point.
1. Cc1ccc(C(=O)NC2CCCCC2)cc1NC(=O)Cn1cnc2c(=O)n(C)c(=O)n(C)c21 [Compound 19h]
2. COc1ccc(C(=O)NC2CC2)cc1NC(=O)Cn1cnc2c(=O)n(C)c(=O)n(C)c21 [Compound 19c]
3. Cc1ccc(C(=O)N2CCS(=O)(=O)CC2)cc1NC(=O)Cn1cnc2c(=O)n(C)c(=O)n(C)c21 [Compound 15e]
4. COc1ccc(C(=O)N2CCOCC2)cc1NC(=O)Cn1cnc2c(=O)n(C)c(=O)n(C)c21 [Compound 15i]
5. COc1ccc(C(=O)NC2CCCCCC2)cc1NC(=O)Cn1cnc2c(=O)n(C)c(=O)n(C)c21 [Compound 19l]
6. Cc1ccc(C(=O)N2CCOCC2)cc1NC(=O)Cn1cnc2c(=O)n(C)c(=O)n(C)c21 [Compound 15h]
7. COc1ccc(C(=O)N2CCSCC2)cc1NC(=O)Cn1cnc2c(=O)n(C)c(=O)n(C)c21 [Compound 15c]

["199 to 201 °C", "231 to 233 °C", "231 to 233 °C", "278 to 279 °C", "197 to 198 °C", "270 to 271 °C", "257 to 258 °C"]

---

Task for the reader: assign each of the following compounds its reported IC50.
Biological target: ATAD2 recombinant bromodomain protein (Homo sapiens, UniProt Q6PL18)
Sequence (Q6PL18 980-1092 limits assumed): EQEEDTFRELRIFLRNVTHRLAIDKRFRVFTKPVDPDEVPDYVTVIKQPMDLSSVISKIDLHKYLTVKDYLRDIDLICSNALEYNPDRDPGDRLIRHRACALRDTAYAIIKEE
Test: ATAD2 enzymatic assay by TR-FRET technology
Type: binding
Details: TR-FRET; mean ± SD; read-out: Kinase inhibitory activity (IC50, μM) ATAD2

Below: 5 compounds and their reported IC50.
# compound, target system, IC50
measured = [
    ("Cn1c(=O)c2ncn(CC(=O)Nc3cccc(C(=O)N4CCS(=O)(=O)CC4)c3)c2n(C)c1=O [Compound 15d]", "ATAD2 recombinant bromodomain protein (Homo sapiens, UniProt Q6PL18)", "> 25 µM"),
    ("Cn1c(=O)c2ncn(CC(=O)Nc3cccc(C(=O)N4CCSCC4)c3)c2n(C)c1=O [Compound 15a]", "ATAD2 recombinant bromodomain protein (Homo sapiens, UniProt Q6PL18)", "> 25 µM"),
    ("Cc1ccc(C(=O)N2CCOCC2)cc1NC(=O)Cn1cnc2c(=O)n(C)c(=O)n(C)c21 [Compound 15h]", "ATAD2 recombinant bromodomain protein (Homo sapiens, UniProt Q6PL18)", "> 25 µM"),
    ("COc1ccc(C(=O)N2CCS(=O)(=O)CC2)cc1NC(=O)Cn1cnc2c(=O)n(C)c(=O)n(C)c21 [Compound 15f]", "ATAD2 recombinant bromodomain protein (Homo sapiens, UniProt Q6PL18)", "> 25 µM"),
    ("Cn1c(=O)c2ncn(CC(=O)Nc3cccc(C(=O)NC4CCCCCC4)c3)c2n(C)c1=O [Compound 19j]", "ATAD2 recombinant bromodomain protein (Homo sapiens, UniProt Q6PL18)", "> 25 µM"),
]

Could you report IC50 for every entry in the following list?
1. Cn1c(=O)c2ncn(CC(=O)Nc3cccc(C(=O)N4CCOCC4)c3F)c2n(C)c1=O [Compound 15k]
2. Cc1ccc(C(=O)N2CCSCC2)cc1NC(=O)Cn1cnc2c(=O)n(C)c(=O)n(C)c21 [Compound 15b]
3. Cc1ccc(C(=O)NC2CCCCCC2)cc1NC(=O)Cn1cnc2c(=O)n(C)c(=O)n(C)c21 [Compound 19k]
4. Cn1c(=O)c2[nH]cnc2n(C)c1=O

1: > 25 µM; 2: 19.3 µM; 3: > 25 µM; 4: 324 µM

---

measured quantity: melting point

Recorded results for 8 compounds are shown here.
# compound, melting point
measured = [
    ("Cc1ccc(C(=O)NC2CC2)cc1NC(=O)Cn1cnc2c(=O)n(C)c(=O)n(C)c21 [Compound 19b]", "218 to 219 °C"),
    ("Cn1c(=O)c2ncn(CC(=O)Nc3cc(C(=O)N4CCOCC4)ccc3Cl)c2n(C)c1=O [Compound 15j]", "262 to 264 °C"),
    ("COc1ccc(C(=O)NC2CCCCC2)cc1NC(=O)Cn1cnc2c(=O)n(C)c(=O)n(C)c21 [Compound 19i]", "185 to 187 °C"),
    ("Cn1c(=O)c2ncn(CC(=O)Nc3cccc(C(=O)NC4CC4)c3)c2n(C)c1=O [Compound 19a]", "222 to 224 °C"),
    ("Cn1c(=O)c2ncn(CC(=O)Nc3cccc(C(=O)N4CCOCC4)c3F)c2n(C)c1=O [Compound 15k]", "265 to 267 °C"),
    ("Cn1c(=O)c2ncn(CC(=O)Nc3cccc(C(=O)NC4CCCC4)c3)c2n(C)c1=O [Compound 19d]", "207 to 208 °C"),
    ("Cc1ccc(C(=O)NC2CCCCCC2)cc1NC(=O)Cn1cnc2c(=O)n(C)c(=O)n(C)c21 [Compound 19k]", "194 to 196 °C"),
    ("Cn1c(=O)c2ncn(CC(=O)Nc3cccc(C(=O)NC4CCCCC4)c3)c2n(C)c1=O [Compound 19g]", "195 to 197 °C"),
]

Check the records and state melting point for Cn1c(=O)c2ncn(CC(=O)Nc3cccc(C(=O)NC4CCCCCC4)c3)c2n(C)c1=O [Compound 19j]
189 to 190 °C
